// data source = PubChem BioAssay (NCI)

For each entry below, report its growth value.
Test system: NCI-H522 lung
Test: NCI-60 one-dose screen, 48 h (100 = growth as untreated, 0 = no growth, -100 = all killed)
Conditions: 10 µM unless noted
Method: Growth inhibition of the NCI-H522 human Non-Small Cell Lung tumor cell line is measured as a screen for anti-cancer activity. Cells are grown in 96 well plates and exposed to the test compound for 48 hours. Compounds are tested at a single concentration, which is 10^-5 M for most compounds. The reported endpoint is percent growth (GI% or GIPRCNT), where numbers from 0 - 100% represent growth inhibition, and numbers from -100% - 0 represent cell death. […]
Compounds without any hit were thinned out: in the full panel of roughly 83,000, 20% have a hit.
Please reply with the bare figure in % and do not write the unit itself.

Identify growth associated with the compound Nc1cc(F)ccc1NC(=O)c1ccc(NC(=O)C/C=C/c2cccnc2)cc1
15.2

Identify growth associated with the compound O=C(NCc1ncc[nH]1)c1ccc(-c2nc3ccc4[nH]ncc4c3c3c2CCCC3)cc1
-65

Identify growth associated with the compound Cn1cc(-c2nc(N)nnc2-c2c[nH]c3ccccc23)c2cc(Br)ccc21
-2.27

Identify growth associated with the compound Cc1occc1-c1nc2s/c(=C/c3ccc(-c4cc(C(F)(F)F)ccc4Cl)o3)c(=O)n2n1
98.2

Identify growth associated with the compound C[C@@H]1C[C@H]2C(=O)O[C@@H](C)C(NC(=O)[C@H](Cc3cc(F)cc(F)c3)NC(=O)Nc3ccc(Cl)cc3F)C(=O)N3CCC[C@H]3C(=O)N3CCCC[C@H]3C(=O)N[C@@H](CO)C(=O)N2C1 (stereo not given in full)
19.4

###

tested on: RXF 393 renal; assay: NCI-60 one-dose screen, 48 h (100 = growth as untreated, 0 = no growth, -100 = all killed); details: 10 µM unless noted
The panel holds about 83,000 compounds, 20% with a hit somewhere; the sample as a whole holds those more often.
Could you please mark YES for values of growth below 50% and NO for values at or above it?

Dear colleague, could you confirm whether growth of COc1ccc(C2CC(c3ccc(Nc4nc(NCCO)nc(N5CCOCC5)n4)cc3)=Nc3c(N)nc(N)nc3N2)cc1 (stereo not given) falls below 50%? Thanks.
NO

Dear colleague, could you confirm whether growth of N#Cc1cn(Cc2ccc(Cl)cc2Cl)c(C(=O)c2ccc(Br)cc2)c1N falls below 50%? Thanks.
NO

Dear colleague, could you confirm whether growth of CCNC(=O)N1CCc2cc(OC)c(OCCc3ccc(OC)cc3)cc2C1c1ccc(OC)cc1C (stereo not given) falls below 50%? Thanks.
YES

Dear colleague, could you confirm whether growth of O=C(Nc1ccc(F)c(F)c1)c1cc(-c2ccc(F)cc2F)ccc1O falls below 50%? Thanks.
YES

Dear colleague, could you confirm whether growth of N/C(=N\C(N)=N\c1nc2ccccc2s1)c1ccncc1Cl falls below 50%? Thanks.
YES

Dear colleague, could you confirm whether growth of COc1cc(OC)cc(C(=O)Nc2sc3c(c2C(N)=O)CCC(=O)C3)c1 falls below 50%? Thanks.
NO

Dear colleague, could you confirm whether growth of Oc1ccc(CSc2nnc(-c3ccc(Cl)cc3)n2-c2ccccc2)c2cccnc12 falls below 50%? Thanks.
NO

Dear colleague, could you confirm whether growth of NS(=O)(=O)c1ccc(Nc2nc(SCc3ccccc3)nc3ccccc23)cc1 falls below 50%? Thanks.
YES

Dear colleague, could you confirm whether growth of Nc1ncc(-c2ccc(NS(=O)(=O)c3ccc(Cl)c(Cl)c3)cc2)[nH]1 falls below 50%? Thanks.
NO

Dear colleague, could you confirm whether growth of O=C1Nc2ccccc2/C1=C/c1ccc(CO)n1-c1ccc(Cl)cc1 falls below 50%? Thanks.
NO

Dear colleague, could you confirm whether growth of O=S(=O)(NCCCNc1nccc(-c2[nH]c(-c3ccccc3)nc2-c2ccc(Cl)c(O)c2)n1)c1cccc2ccccc12 falls below 50%? Thanks.
YES

Dear colleague, could you confirm whether growth of Cc1cc(C)c2sc(=O)n(Cc3nnc(SCCC(=O)O)o3)c2n1 falls below 50%? Thanks.
NO

Dear colleague, could you confirm whether growth of Cc1ccc(-n2c(/C=C3\C(=O)Nc4ccccc43)ccc2CO)cc1 falls below 50%? Thanks.
NO

Dear colleague, could you confirm whether growth of CC[C@@H](CO)Nc1ccc2ncc(C#Cc3cncc(C(=O)Nc4ccc(CN5CCN(C)CC5)c(C(F)(F)F)c4)c3)n2n1 falls below 50%? Thanks.
YES

Dear colleague, could you confirm whether growth of N#Cc1c(-c2cccs2)cc(-c2cnccn2)nc1SCC(=O)c1ccc(F)cc1 falls below 50%? Thanks.
NO

Dear colleague, could you confirm whether growth of CCc1cccc(NC(=O)CNc2cc(S(=O)(=O)N(C)C)cc(C)c2C)c1 falls below 50%? Thanks.
YES

Dear colleague, could you confirm whether growth of CNC(=O)c1cc(-c2ccc(NC(=S)Nc3cc(C(F)(F)F)cc(C(F)(F)F)c3)cc2)nc2cccnc12 falls below 50%? Thanks.
YES

Dear colleague, could you confirm whether growth of CC(=O)C1=C(C)NC(NNC(N)=S)=NC1c1ccccc1 (stereo not given) falls below 50%? Thanks.
YES

Dear colleague, could you confirm whether growth of Cn1ccnc1C(=O)/C=C/C=C/c1ccc(C(=O)Nc2ccc(F)cc2)cc1 falls below 50%? Thanks.
YES

###

system: HCT-116 colon; assay: NCI-60 one-dose screen, 48 h; conditions: 10 µM unless noted
Compounds without any hit were thinned out: in the full panel of roughly 83,000, 20% have a hit. Calls of active or inactive are those of the source. Rule for the calls: active = growth percent below 10; inactive = the rest.
Write down one outcome, taken from active, inactive

Identify the outcome logged in this assay for the compound shown: COc1ccc(CCOc2cc3c(cc2OC)CCN(C(=O)NCc2cocn2)C3c2ccc(C)cc2C)cc1 (stereo not given)
active

Identify the outcome logged in this assay for the compound shown: COc1ccc2c(c1)c(CC(=O)[Se]CC#N)c(C)n2C(=O)c1ccc(Cl)cc1
active

Identify the outcome logged in this assay for the compound shown: O=c1c2ccccc2nc(COc2ccccc2)n1NS(=O)(=O)c1ccc(Cl)cc1
inactive

Identify the outcome logged in this assay for the compound shown: NC(N)=Nc1ccc(Oc2ccc(Nc3ccc(Cl)c(C(F)(F)F)c3)cc2)cc1
inactive

Identify the outcome logged in this assay for the compound shown: CCCCCCCn1cc2c(NCCc3ccccc3)ncnc2n1
inactive

Identify the outcome logged in this assay for the compound shown: CCCn1cnc2c(c1=N)C(c1ccc(Cl)cc1)c1sc3c(CC)cccc3c1O2 (stereo not given)
inactive

Identify the outcome logged in this assay for the compound shown: Cn1cc(-c2nc(N)nnc2-c2c[nH]c3ccccc23)c2cc(Br)ccc21
inactive

Identify the outcome logged in this assay for the compound shown: O=c1[nH]c2ccccc2cc1CSc1ccccc1Nc1nccc(-c2ccc(Cl)cc2)n1
inactive

Identify the outcome logged in this assay for the compound shown: N/C(=N\C(N)=N\c1nc2ccccc2s1)c1cccc(F)c1
inactive

Identify the outcome logged in this assay for the compound shown: Nc1ncc(-c2ccc3ncnc(N4CCc5cc(F)c(F)cc54)c3c2)cn1
inactive

###

system: SF-539 CNS; test: NCI-60 one-dose screen, 48 h (100 = growth as untreated, 0 = no growth, -100 = all killed); conditions: 10 µM unless noted
Compounds without any hit were thinned out: in the full panel of roughly 83,000, 20% have a hit. Activity calls are given as the source filed them. How the source made its calls: active means growth percent below 10; inactive means the rest.
Observation type: growth

Identify growth associated with the compound Oc1ccc(CSc2nnc(-c3ccc(Cl)cc3)n2-c2ccccc2)c2cccnc12
22% (inactive)

Identify growth associated with the compound O=C(NNc1nc2cc(F)c(F)cc2n2c(CN3CC4CNCC4C3)ccc12)c1cnccn1 (stereo not given)
8.64% (active)

Identify growth associated with the compound COc1ccc2c(c1)Oc1nc(N)c(C#N)c(N)c1C2Sc1ccc(C)cc1 (stereo not given)
-34% (active)

Identify growth associated with the compound COc1c(N2CC3CCCNC3C2)c(F)cc2c(=O)c(C(=O)N/N=C/c3c[nH]c4ccccc34)cn(C3CC3)c12 (stereo not given)
88.2% (inactive)

Identify growth associated with the compound CCOC(=O)C(=O)CC(=O)N1C(=S)NC(=O)C1CC(C)C (stereo not given)
96.1% (inactive)

Identify growth associated with the compound CC(C)(C)CC(C)(C)n1nnnc1C(Nc1nccs1)c1cc2cccc3ccc4cccc1c4c32 (stereo not given)
92.7% (inactive)

Identify growth associated with the compound O=C(CN1CCN(c2cc(=O)n(-c3ccccc3)c3ccccc23)CC1)Nc1nc(-c2ccccc2)cs1
77.1% (inactive)

Identify growth associated with the compound O=S(=O)(NCCNc1nccc(-n2cnc3ccccc32)n1)c1ccc(Br)cc1
96.2% (inactive)

Identify growth associated with the compound CC(=O)N1C(=S)NC(=O)C1CC(C)C (stereo not given)
102% (inactive)

Identify growth associated with the compound N#Cc1cccc(/C(N)=N/C(N)=N/c2nc3ccccc3s2)c1
4.08% (active)

Identify growth associated with the compound CC(=O)c1cc(C(=O)N2c3ccccc3Sc3ccccc32)n2ccc3ccccc3c12
29.5% (inactive)

Identify growth associated with the compound O=C(Nc1ccc2c(ccn2Cc2ccccn2)c1)c1ccnnc1
97.7% (inactive)

Identify growth associated with the compound COc1ccccc1N1CCN(C2=CC(=O)C(C)=C(C)C2=O)CC1
100% (inactive)

Identify growth associated with the compound O=C(CNc1nc(-c2cccc([N+](=O)[O-])c2)cs1)Nc1cccc([N+](=O)[O-])c1
-29.6% (active)

Identify growth associated with the compound C=CCn1c(SCC(=O)Nc2ccc(C(=O)/C=C/c3ccc(Cl)cc3)cc2)nnc1-c1c[nH]c2ccccc12
75.8% (inactive)

Identify growth associated with the compound O=C(CSc1nnc(-c2ccc(Cl)cc2)n1-c1ccccc1)Nc1cccc(Cl)c1
50.9% (inactive)

Identify growth associated with the compound COc1ccc(-c2nc3ccc(-c4nnc(SCC(=O)Nc5ccc(C(=O)/C=C/c6ccc(Cl)cc6)cc5)o4)cc3[nH]2)cc1
87.1% (inactive)

Identify growth associated with the compound Oc1[nH]c2ccccc2c1Nn1c(N=N/C=c2/ccc3c(c2)C=NN=3)n[nH]c1=S
94% (inactive)

Identify growth associated with the compound CCCn1cnc2c(c1=N)C(c1ccc(Cl)cc1)c1sc3c(C)cccc3c1O2 (stereo not given)
-21.1% (active)

Identify growth associated with the compound O=C1Nc2ccccc2/C1=C/c1ccc(CO)n1-c1ccc(Cl)cc1
44.5% (inactive)
